- STUDY TARGET: T1, soluble human BLyS (human, UniProt Q9Y275 134-285)
- T1 construct: also called hBLyS; human BAFF (BLyS)
- MEASUREMENT DESCRIPTION: Biacore, antibody captured on chip, BLyS injected, 1:1 model, 25 C
PROPERTY: koff (s⁻¹)
Express your answer in s⁻¹, writing the number without its unit.

Lookup: Give the measured koff of 8D12 IgG1 F243A/V264A double mutein expressed in Pichia pastoris (antibody, V domains shown, IgG1 F243A/V264A (EU) double mutein, alpha-2,6-sialylated, from glycoengineered Pichia pastoris; also called 8D12-DM; 8D12-DM (Pichia)) VH: QVQLVQSGAEVKKPGASVKVSCKASGYTFTSYAMHWVRQAPGQRLEWMGWINAGNGNTKYSQKFQGRVTITRDTSASTAYMELSSLRSEDTAVYYCARAYYDILTGYSVYGMDVWGQGTTVTVSS VL: EIVLTQSPATLSLSPGERATLSCRANESVGNYLAWYQQKPGQAPRLLIYGASRRATGIPDRFSGSGSGTDFTLTISRLEPEDFAVYYCQQYGSSLLTFGGGTKVEIKR .
Found: 3.5e-05

Lookup: Give the measured koff of 6C10 IgG1 F243A/V264A double mutein expressed in Pichia pastoris (antibody, V domains shown, IgG1 F243A/V264A (EU) double mutein, alpha-2,6-sialylated, from glycoengineered Pichia pastoris; also called 6C10-DM; 6C10-DM (Pichia)) VH: EVQLVQSGAEVKKPGASVKVSCKASGYTFTSYGISWVRQAPGQGLEWMGWISAYNGNTNYAQKLQGRVTMTTDTSTSTAYMELRSLRSDDTAVYYCARTYYDILTGYYYYYGMDVWGQGTTVTVSS VL: EIVLTQSPGTLSLSPGERAMLSCRASQSVGNYLAWYQQKPGQAPRLLIYDASNRATGIPARFSGSGSGTDFTLTINSLEPEDFAVYYCQQRSNWPLTFGGGTKVEIKR .
Found: 5.5e-05

Lookup: Give the measured koff of 6C10 IgG expressed in HEK293 cells (antibody, V domains shown, IgG from HEK293-FreeStyle cells; also called 6C10 (293)) VH: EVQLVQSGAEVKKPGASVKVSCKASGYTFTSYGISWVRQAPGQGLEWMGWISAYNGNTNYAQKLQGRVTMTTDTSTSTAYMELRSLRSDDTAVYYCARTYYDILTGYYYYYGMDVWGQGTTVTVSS VL: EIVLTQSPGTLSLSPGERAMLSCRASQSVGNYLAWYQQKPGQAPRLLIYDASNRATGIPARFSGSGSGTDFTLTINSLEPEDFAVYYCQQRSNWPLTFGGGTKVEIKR .
Found: 5e-05

Lookup: Give the measured koff of 5B7 IgG expressed in HEK293 cells (antibody, V domains shown, also called 5B7 (293); 5B7-HEK293) VH: QVQLVQSGAEVKKPGASVKVSCKASGGTFSSYAISWVRQAPGQGLEWMGGIIPIFGTANYAQKFQGRVTITADKSTSTAYMELSSLRSEDTAVYYCARVDYDILTGYYMGYFDYWGQGTLVTVSS VL: DIVMTQSPATLSLSPGERATLSCRASQSVSSYLAWYQQKPGQAPRLLIYDASNRATGIPARFSGSGSGTDFTLTISSLEPEDFAVYYCQQRSNWPITFGQGTRLEIKR .
Found: 4.2e-05
